# System: Staphylococcus aureus
# Assay overview: Bactericidal activity against Staphylococcus aureus wound isolate after 24 hr by NCCLS dilution tube method
# Format: functional
Measurement type: MBC (µg/mL)

{"Input smiles": "CN(C)[C@@H]1C(O)=C(C(N)=O)C(=O)[C@@]2(O)C(O)=C3C(=O)c4c(O)cccc4[C@@](C)(O)[C@H]3C[C@@H]12", "Quantitative result": 12.5}
{"Input smiles": "NC[C@H]1O[C@H](O[C@H]2[C@H](O)[C@@H](O[C@H]3O[C@H](CO)[C@@H](O)[C@H](N)[C@H]3O)[C@H](N)C[C@@H]2N)[C@H](O)[C@@H](O)[C@@H]1O", "Quantitative result": 17.9}
{"Input smiles": "C=CC1=C(C(=O)O)N2C(=O)[C@@H](NC(=O)/C(=N\\OCC(=O)O)c3csc(N)n3)[C@H]2SC1", "Quantitative result": 33.1}

Cited source: ChEMBL document CHEMBL3046735
